Assay: Cytotoxicity Determination
Format: cell-based
Conditions: human, HEp-2 cells, without addition of virus, CCK-8 readout, bins (Table 4: greater than 100 μM; Table 5: equal to or less than 100 μM and greater than 10 μM), read-out: 50% cytotoxicity concentration (CC50)
Method: In order to determine the compound cytotoxicity, in parallel, each of the compounds is applied to duplicate wells in a 384-well cell plate at serial final concentrations starting from 100 μM using ½ stepwise dilutions for 7 points without addition of virus. Incubate the cells at 37° C., 5% CO2 for 5 days. Add 6 μl CCK-8 into each well and incubate in a CO2 incubator at 37° C. for 3-4 hours. […]
parameter-measured: CC50 at 5 days

For this compound ( COc1cc(C(=O)N[C@@H](CO)C(=O)c2ccc(OC)c(-c3csc4c(F)cccc34)n2)ccc1OCCO [Compound 1830] ), measured CC50 at 5 days is > 100 µM

Value of CC50 at 5 days reported for the compound COc1cc(C(=O)NCC(=O)c2ccc(OC)c(-c3ccnc(Cl)c3)n2)ccc1OCCO [Compound 1611] is > 100 µM

====

assay: Cytotoxicity Determination; assay type: cell-based; settings: human, HEp-2 cells, without addition of virus, CCK-8 readout, bins (Table 4: greater than 100 μM; Table 5: equal to or less than 100 μM and greater than 10 μM), read-out: 50% cytotoxicity concentration (CC50)
parameter-measured: CC50 at 5 days

# CC50 at 5 days of COc1cc(C(=O)CNC(=O)c2ccc(OCCCO)c(OC)c2)nc(-c2csc3c(F)cccc23)c1 = 10 to 100 µM

Lookup result for CCOc1ccc(C(=O)NCC(=O)N/N=C2\CN(CC)Cc3sc4c(F)cccc4c32)cc1OC ; measured CC50 at 5 days: > 100 µM

CC50 at 5 days recorded for this compound, COc1ccc(C(=O)NCC(=O)c2ccc(-c3csc4c(F)cccc34)o2)cc1OC , is > 100 µM

Lab note: measured CC50 at 5 days of COc1ccc(C(=O)NCC(=O)c2cncc(-c3csc4c(F)cccc34)n2)cc1OC was > 100 µM

Note to self: CC50 at 5 days recorded for COCCOc1ccc(C(=O)NCC(=O)N/N=C(\CCOC)c2csc3c(F)cccc23)cc1OC was > 100 µM

GET /value?item= CCN(C)c1ccc(C(=O)NCC(=O)N/N=C(\C)c2csc3ccccc23)cc1OC &field=CC50 at 5 days returns 10 to 100 µM

COc1cc(C(=O)NCC(=O)c2ccc(OC)c(-c3coc4c(F)cccc34)n2)ccc1OCCO yielded CC50 at 5 days of > 100 µM

response.value for COc1cc(C(=O)NCC(=O)c2ccc(OC)c(-c3csc4c(F)cccc34)n2)ccc1OCCN (field: CC50 at 5 days) = 10 to 100 µM

====

test: Cytotoxicity Determination; assay type: cell-based; conditions: human, HEp-2 cells, without addition of virus, CCK-8 readout, bins (Table 4: greater than 100 μM; Table 5: equal to or less than 100 μM and greater than 10 μM), read-out: 50% cytotoxicity concentration (CC50)
In this section we review reported CC50 at 5 days values for a set of compounds.

compound-structure: CCOc1ccc(C(=O)NCC(=O)N/N=C(\C)c2csc3ccccc23)cc1OC
CC50 at 5 days: > 100 µM

The value of CC50 at 5 days measured for the compound COc1cc(C(=O)NCC(=O)c2cccc(-c3csc4c(F)cccc34)n2)ccc1OCCN1CCOCC1 turned out to be 10 to 100 µM

Form: compound = COc1cc(C(=O)NCC(=O)c2ccc(OC)c(-c3ccc(C(F)(F)F)cc3)n2)ccc1OCCO ; CC50 at 5 days = 10 to 100 µM

Value of CC50 at 5 days reported for the compound COc1cc(C(=O)NCC(=O)c2ccc(OC)c(-c3ccc(F)c(C)c3)n2)ccc1OCCO is > 100 µM

Form field CC50 at 5 days, entry CNc1ccc2scc(/C=N/NC(=O)CNC(=O)c3ccc(OC)c(OC)c3)c2c1 : > 100 µM

Quick note, CC50 at 5 days for COc1ccc(C(=O)NCC(=O)N/N=C/c2csc3ccccc23)cc1OC landed at 10 to 100 µM
